Attribution: patent US20230381333A1

Target: human GIP receptor (Homo sapiens, UniProt P48546)
Construct: expressed in transfected cells; host or cells: Chinese hamster ovary (CHO)
Sequence (P48546 22-466): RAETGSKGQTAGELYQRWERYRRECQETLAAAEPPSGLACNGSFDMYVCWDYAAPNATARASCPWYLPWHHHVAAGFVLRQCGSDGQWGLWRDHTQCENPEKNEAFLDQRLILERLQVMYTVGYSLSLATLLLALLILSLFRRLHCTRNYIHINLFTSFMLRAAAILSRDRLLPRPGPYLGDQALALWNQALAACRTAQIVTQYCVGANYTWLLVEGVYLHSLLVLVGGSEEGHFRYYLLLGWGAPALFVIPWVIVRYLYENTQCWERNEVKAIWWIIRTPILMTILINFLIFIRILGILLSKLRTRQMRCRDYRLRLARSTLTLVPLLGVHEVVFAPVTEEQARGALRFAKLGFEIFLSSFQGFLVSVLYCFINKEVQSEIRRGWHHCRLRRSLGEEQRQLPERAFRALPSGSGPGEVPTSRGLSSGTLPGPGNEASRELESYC
Assay: In vitro cAMP activity in human GIP receptor-expressing CHO cells (LANCE cAMP kit)
Assay type: cell-based
Details: long-acting conjugate; relative titer from cAMP EC50 compared to human GIP
Bridge positions count the residues as written; N and C are the ends. Square brackets hold non-standard residues; d marks the D form. Ends that are not written are not given here. Aib = CC(C)(N)C(=O)O
Measurement Label: In vitro activity compared to native-type peptide (%) vs GIP
Answer with the figure and its unit, nothing else.

Req: Find the measured In vitro activity compared to native-type peptide (%) vs GIP of 43 (Y[Aib]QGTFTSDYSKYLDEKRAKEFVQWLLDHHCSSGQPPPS; lactam 16-20) [compound 43] and report it.
Resp: 0.6%

Req: Find the measured In vitro activity compared to native-type peptide (%) vs GIP of 77 (Y[Aib]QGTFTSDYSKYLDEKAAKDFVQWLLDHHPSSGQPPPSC; lactam 16-20) [compound 77] and report it.
Resp: 6.6%

Req: Find the measured In vitro activity compared to native-type peptide (%) vs GIP of 96 (Y[Aib]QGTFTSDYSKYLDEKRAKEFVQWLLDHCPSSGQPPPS; lactam 16-20) [compound 96] and report it.
Resp: 0.3%

Req: Find the measured In vitro activity compared to native-type peptide (%) vs GIP of 42 (Y[Aib]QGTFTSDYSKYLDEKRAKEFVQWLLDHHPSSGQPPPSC; lactam 16-20) [compound 42] and report it.
Resp: 1.2%
